// provenance: ChEMBL document CHEMBL4513216

Test system: Plasmodium falciparum
Experiment: Screen against P. falciparum Asexual Blood Stage (ABS), at 5uM
Format: functional, Dd2
Conditions: tested at 5 uM
The campaign covered roughly 65,000 compounds. About 2,100 (3.2%) showed an effect of 50% or more. The median lay at about -52%. The sample holds strong results, similar compounds and a random draw of the others, so the mix is not that of the screen.
Simple rule here: INHIBITION less than -20% is met, otherwise not met.

Consider the worked cases shown below.
In [3]: df
Out[3]:
                                   compound  category
0  Cc1cc(CN2CCC(C3CCN(CC(C)C)CC3)C2)[nH]n1 (stereo not given)   not met
1  CC[C@H](C)[C@H](NC(=O)c1ccc(-n2cnnn2)cc1)C(=O)OC   not met
2    Cc1noc(C)c1CN1CCc2ncnc(-c3ccncc3)c2CC1       met
3  CCCc1nc(C[S+]([O-])Cc2cn3cccc(C)c3n2)no1 (stereo not given)       met
4            CCN1CCC(NC(=O)c2ccc(F)cc2I)CC1   not met

Given `CCS(=O)(=O)N[C@H]1CN(Cc2noc(COC)n2)C[C@@H]1C1CC1` , is recorded INHIBITION strictly lower than -20%?
met

Given `COCCN(C)Cc1nc(-c2cccc(F)c2F)oc1C` , is recorded INHIBITION strictly lower than -20%?
met

Given COc1ccc(C(=O)NCC(c2cccn2C)N2CCCC2)cc1OC (stereo not given) , is recorded INHIBITION strictly lower than -20%?
not met

Given COc1cc(OC)cc(C(=O)NCC(c2cccn2C)N2CCCC2)c1 (stereo not given) , is recorded INHIBITION strictly lower than -20%?
not met

Given `Cc1cnn(CCNCCCOc2ccccc2)c1` , is recorded INHIBITION strictly lower than -20%?
not met

Given Cc1cccc(N2CC3(CCN(Cc4nccn4C)C3)CC2=O)c1 (stereo not given) , is recorded INHIBITION strictly lower than -20%?
met

Given `CCS(=O)(=O)CCNC1CCN(c2nc3ccc(Cl)cc3s2)CC1` , is recorded INHIBITION strictly lower than -20%?
met

Given CN1CCCCCC1C(=O)N1CCN(c2ccccc2C#N)CC1 (stereo not given) , is recorded INHIBITION strictly lower than -20%?
not met

Given Cc1csc2c(N3CCC(NCCCC4CCOC4)CC3)ncnc12 (stereo not given) , is recorded INHIBITION strictly lower than -20%?
met
